// data source = ChEMBL document CHEMBL4819086

target: Egl nine homolog 1 (Homo sapiens); assay: Inhibition of recombinant human PHD2 (181 to 426 residues) using DLDLEMLAPYIPMDDDFQL peptide as substrate preincubated for 15 mins followed by substrate addition and measured after 15 mins by Q-TOF mass spectrometric analysis
Sequence (Q9GZT9 whole entry, the tested form may be a part): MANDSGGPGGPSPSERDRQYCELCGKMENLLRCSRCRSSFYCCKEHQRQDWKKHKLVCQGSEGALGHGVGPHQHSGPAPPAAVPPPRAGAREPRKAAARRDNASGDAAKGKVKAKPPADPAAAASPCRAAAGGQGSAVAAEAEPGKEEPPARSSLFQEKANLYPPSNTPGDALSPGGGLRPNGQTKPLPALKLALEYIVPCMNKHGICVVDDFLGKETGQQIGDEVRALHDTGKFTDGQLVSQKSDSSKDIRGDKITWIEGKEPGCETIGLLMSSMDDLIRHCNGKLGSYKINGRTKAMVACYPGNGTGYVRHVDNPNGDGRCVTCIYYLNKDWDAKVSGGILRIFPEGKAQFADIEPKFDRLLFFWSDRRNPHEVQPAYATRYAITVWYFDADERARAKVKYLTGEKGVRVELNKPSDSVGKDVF
experimental.endpoint: IC50

A selection of reference data follows.
* C=CCN(CC=C)Cc1c(C)nc2ccccc2c1O | > 100 µM
* COC(=O)c1c(NC(=O)C2C(C(=O)O)[C@@H]3C=C[C@H]2CC3)sc(C)c1C (stereo partly drawn) | 77.7 µM

With those in mind, consider the next molecule.
Notebook: Cc1cc(NC(=O)c2nn(C)c(C)c2[N+](=O)[O-])no1 , IC50 read as > 100 µM
